systemUnderTest: Vascular endothelial growth factor receptor 2 (Homo sapiens) (UniProt P35968)
Sequence (P35968 whole entry): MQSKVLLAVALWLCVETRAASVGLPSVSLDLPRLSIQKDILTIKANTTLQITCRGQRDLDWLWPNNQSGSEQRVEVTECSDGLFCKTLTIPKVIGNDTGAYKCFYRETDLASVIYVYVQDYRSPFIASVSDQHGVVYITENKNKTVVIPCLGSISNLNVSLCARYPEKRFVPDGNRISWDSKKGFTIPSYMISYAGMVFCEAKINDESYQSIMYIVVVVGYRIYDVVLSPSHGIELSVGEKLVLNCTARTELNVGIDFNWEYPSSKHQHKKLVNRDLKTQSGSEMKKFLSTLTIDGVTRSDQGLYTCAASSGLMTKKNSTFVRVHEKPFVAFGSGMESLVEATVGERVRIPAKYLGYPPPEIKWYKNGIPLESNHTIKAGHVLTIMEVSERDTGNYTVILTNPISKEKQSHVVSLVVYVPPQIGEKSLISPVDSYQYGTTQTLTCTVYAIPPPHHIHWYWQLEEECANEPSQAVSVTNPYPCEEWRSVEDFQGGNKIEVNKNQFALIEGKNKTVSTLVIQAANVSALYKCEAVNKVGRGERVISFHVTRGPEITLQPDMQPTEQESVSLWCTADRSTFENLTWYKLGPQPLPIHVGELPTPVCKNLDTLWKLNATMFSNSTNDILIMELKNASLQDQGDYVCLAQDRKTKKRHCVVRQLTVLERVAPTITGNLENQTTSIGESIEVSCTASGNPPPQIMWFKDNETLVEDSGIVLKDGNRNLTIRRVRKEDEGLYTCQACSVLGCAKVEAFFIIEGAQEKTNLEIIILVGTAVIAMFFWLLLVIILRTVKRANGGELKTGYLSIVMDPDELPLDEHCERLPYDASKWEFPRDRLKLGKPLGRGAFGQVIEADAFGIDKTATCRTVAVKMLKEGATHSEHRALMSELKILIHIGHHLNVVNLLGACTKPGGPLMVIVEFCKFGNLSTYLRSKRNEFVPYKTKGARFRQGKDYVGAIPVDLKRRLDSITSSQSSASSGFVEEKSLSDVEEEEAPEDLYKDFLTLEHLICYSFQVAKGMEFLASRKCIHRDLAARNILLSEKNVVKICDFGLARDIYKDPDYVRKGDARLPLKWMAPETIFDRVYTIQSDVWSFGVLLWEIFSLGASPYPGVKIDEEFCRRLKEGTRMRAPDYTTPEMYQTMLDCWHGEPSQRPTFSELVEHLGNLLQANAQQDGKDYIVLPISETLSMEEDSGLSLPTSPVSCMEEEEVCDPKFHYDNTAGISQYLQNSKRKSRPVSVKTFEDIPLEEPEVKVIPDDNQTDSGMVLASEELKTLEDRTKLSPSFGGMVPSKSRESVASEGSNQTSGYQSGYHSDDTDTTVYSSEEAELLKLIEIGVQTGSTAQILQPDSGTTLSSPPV
cond: at 1 µM
Mark yes only when residual activity stays strictly below 60%. Values equal to the cut-off are no.

**Query** Take the compound O=C1Cc2c([nH]c3ccc([N+](=O)[O-])cc23)-c2ccccc2N1 and say whether its residual activity is less than 60%.
**Result** yes

----------
Reported residual activity by item:
systemUnderTest: Protein-tyrosine kinase 6 (Homo sapiens) (UniProt Q13882)
Sequence (Q13882 whole entry, looked up): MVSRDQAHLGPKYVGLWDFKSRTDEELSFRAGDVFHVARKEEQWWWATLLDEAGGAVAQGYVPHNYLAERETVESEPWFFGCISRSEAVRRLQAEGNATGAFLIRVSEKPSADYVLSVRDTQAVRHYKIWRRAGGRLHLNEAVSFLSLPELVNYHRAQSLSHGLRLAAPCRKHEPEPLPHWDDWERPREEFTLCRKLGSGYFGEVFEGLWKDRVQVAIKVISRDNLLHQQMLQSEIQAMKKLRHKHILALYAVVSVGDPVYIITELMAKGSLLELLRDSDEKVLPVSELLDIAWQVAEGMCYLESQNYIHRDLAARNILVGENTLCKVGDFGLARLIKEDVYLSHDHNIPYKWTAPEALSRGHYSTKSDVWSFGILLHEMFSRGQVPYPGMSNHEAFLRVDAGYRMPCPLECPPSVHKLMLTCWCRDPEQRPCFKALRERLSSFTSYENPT
cond: at 1 µM
Response body: numeric value in %, unit text excluded.

> print(dat)
                               smilesrecord       readoutlabel  valueunit  recordedresult
1  CC(C)(C)n1nc(Cc2cccc3ccccc23)c2c(N)ncnc21  residual activity          %               5
2      O=C(Nc1ccc(Cl)cc1)c1ccccc1NCc1ccncc1  residual activity          %              21
3  CCN(CC)CCNC(=O)c1c(C)[nH]c(/C=C2\C(=O)Nc3ccc(Cl)cc32)c1C  residual activity          %              65
4  O=C(CCCc1ccc(-c2ccccc2F)cc1)Nc1ccc(O)cc1  residual activity          %             104
5                 Cn1sc(=O)n(Cc2ccccc2)c1=O  residual activity          %              96
6  COc1ccc2c(c1)c(C1=C(c3c[nH]c4ccccc34)C(=O)NC1=O)cn2CCCN(C)C  residual activity          %              98

**Query** // lookup residual activity for COc1ccc(CNC(=O)Nc2ncc([N+](=O)[O-])s2)cc1
**Result** 24

**Query** // lookup residual activity for CN(C)S(=O)(=O)c1ccc2c(c1)/C(=C/c1cc3c([nH]1)CCCC3)C(=O)N2
**Result** 98

**Query** // lookup residual activity for O=C1Nc2ccc(Cl)cc2/C1=C/c1cc(Cl)c(O)c(Cl)c1
**Result** 84

**Query** // lookup residual activity for COc1cc2nccc(Oc3ccc(NC(=O)Nc4cc(C)on4)c(Cl)c3)c2cc1OC
**Result** 2

**Query** // lookup residual activity for Nc1ncnc2[nH]nc(Nc3ccc(F)cc3)c12
**Result** 51

----------
systemUnderTest: Serine/threonine-protein kinase 3 (Homo sapiens)
Sequence (whole entry): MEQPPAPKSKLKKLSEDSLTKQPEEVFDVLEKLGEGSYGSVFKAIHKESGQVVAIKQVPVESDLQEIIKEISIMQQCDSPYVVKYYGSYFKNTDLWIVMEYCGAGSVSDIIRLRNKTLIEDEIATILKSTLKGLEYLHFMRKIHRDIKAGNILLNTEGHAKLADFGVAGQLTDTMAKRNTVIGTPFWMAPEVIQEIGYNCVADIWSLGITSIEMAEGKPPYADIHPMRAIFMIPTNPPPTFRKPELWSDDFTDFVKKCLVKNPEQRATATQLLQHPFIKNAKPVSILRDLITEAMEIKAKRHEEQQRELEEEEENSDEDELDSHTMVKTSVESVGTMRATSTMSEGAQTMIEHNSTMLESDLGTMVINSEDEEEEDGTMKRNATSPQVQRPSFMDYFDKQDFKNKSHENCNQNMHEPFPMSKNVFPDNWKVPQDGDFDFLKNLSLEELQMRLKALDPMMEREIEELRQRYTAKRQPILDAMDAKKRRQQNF
cond: at 10 µM
Class key for residual activity values: b0 (below 30%), b1 (30% to below 80%), b2 (80% or more)

# count of solved cases: 10
> print(dat)
                                smilesrecord  assignedlabel
 1  Nc1nc(Nc2ccc(S(N)(=O)=O)cc2)nn1C(=O)c1c(F)cccc1F             b0
 2                 Cn1sc(=O)n(Cc2ccccc2)c1=O             b2
 3    N#Cc1c(NC(=O)c2cccc3ccccc23)sc2c1CCCC2             b2
 4  COc1cc2nccc(Oc3ccc(NC(=O)Nc4cc(C)on4)c(Cl)c3)c2cc1OC             b0
 5  COc1cc2nccc(Oc3ccc(NC(=S)NC(=O)c4ccccc4C)cc3)c2cc1OC             b1
 6     O=c1cc(N2CCNCC2)oc2c(-c3ccccc3)cccc12             b2
 7         COc1cc2ncnc(Nc3cccc(Cl)c3)c2cc1OC             b1
 8  CCOC(=O)c1c(C)[nH]c(/C=C2\C(=O)Nc3ccccc32)c1C             b1
 9  O=C(c1cc2cc(O)ccc2[nH]1)c1cc2cc(O)ccc2[nH]1             b0
10  CC(C)[C@H](CO)Nc1nc(Nc2cc(N)cc(Cl)c2)c2ncn(C(C)C)c2n1             b1

**Query** Hi there! Could you help me figure out the category for Cn1c2ccccc2c2c3c(c4c5ccccc5n(CCC#N)c4c21)CNC3=O please?
**Result** b0

----------
systemUnderTest: Death-associated protein kinase 2 (Homo sapiens) (UniProt Q9UIK4)
Sequence (Q9UIK4 whole entry, looked up): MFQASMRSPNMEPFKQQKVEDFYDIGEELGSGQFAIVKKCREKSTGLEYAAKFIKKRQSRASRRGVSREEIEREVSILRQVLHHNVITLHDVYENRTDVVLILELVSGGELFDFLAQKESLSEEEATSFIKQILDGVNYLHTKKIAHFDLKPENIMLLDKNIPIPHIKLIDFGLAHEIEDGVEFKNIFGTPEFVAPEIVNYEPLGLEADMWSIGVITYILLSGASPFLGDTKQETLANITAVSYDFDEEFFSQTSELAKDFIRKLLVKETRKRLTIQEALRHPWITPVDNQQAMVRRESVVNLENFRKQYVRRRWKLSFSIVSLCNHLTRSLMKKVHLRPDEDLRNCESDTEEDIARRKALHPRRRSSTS
cond: at 10 µM
Reported residual activity by item:
Your reply should be a number followed by the unit it is expressed in.

> print(dat)
                                   compound       readoutlabel  recordedresult
1  CCN(CC)CCNC(=O)c1c(C)[nH]c(/C=C2\C(=O)Nc3ccc(Cl)cc32)c1C  residual activity             16%
2    O=C1NC(=O)c2c1c1c3ccccc3[nH]c1n1cncc21  residual activity             -1%
3  COc1ccc(CNC(=O)Nc2ncc([N+](=O)[O-])s2)cc1  residual activity            104%
4  CC(C)(C)n1nc(Cc2cccc3ccccc23)c2c(N)ncnc21  residual activity            106%
5  O=C(CCCc1ccc(-c2ccccc2F)cc1)Nc1ccc(O)cc1  residual activity             99%

**Query** Give the reported residual activity for O=C(NC(NC(=S)Nc1ccc(F)c([N+](=O)[O-])c1)C(Cl)(Cl)Cl)C(c1ccccc1)c1ccccc1 (stereo not given) (system: Death-associated protein kinase 2 (Homo sapiens) (UniProt Q9UIK4)).
**Result** 78%

**Query** Give the reported residual activity for CCCC(=O)Oc1ccc2[nH]c(C(=O)c3cc4ccccc4[nH]3)cc2c1 (system: Death-associated protein kinase 2 (Homo sapiens) (UniProt Q9UIK4)).
**Result** 104%

**Query** Give the reported residual activity for CC(C)c1nn(-c2c(Cl)cccc2Cl)c2nc(Cc3ccc(OCCO)cc3)[nH]c(=O)c12 (system: Death-associated protein kinase 2 (Homo sapiens) (UniProt Q9UIK4)).
**Result** 97%

**Query** Give the reported residual activity for Cn1c2ccccc2c2c3c(c4c5ccccc5n(CCC#N)c4c21)CNC3=O (system: Death-associated protein kinase 2 (Homo sapiens) (UniProt Q9UIK4)).
**Result** 105%

**Query** Give the reported residual activity for CC(C)[C@H](CO)Nc1nc(Nc2cc(N)cc(Cl)c2)c2ncn(C(C)C)c2n1 (system: Death-associated protein kinase 2 (Homo sapiens) (UniProt Q9UIK4)).
**Result** 97%

----------
systemUnderTest: Fibroblast growth factor receptor 1 (Homo sapiens) (UniProt P11362)
Sequence (P11362 22-822 limits assumed): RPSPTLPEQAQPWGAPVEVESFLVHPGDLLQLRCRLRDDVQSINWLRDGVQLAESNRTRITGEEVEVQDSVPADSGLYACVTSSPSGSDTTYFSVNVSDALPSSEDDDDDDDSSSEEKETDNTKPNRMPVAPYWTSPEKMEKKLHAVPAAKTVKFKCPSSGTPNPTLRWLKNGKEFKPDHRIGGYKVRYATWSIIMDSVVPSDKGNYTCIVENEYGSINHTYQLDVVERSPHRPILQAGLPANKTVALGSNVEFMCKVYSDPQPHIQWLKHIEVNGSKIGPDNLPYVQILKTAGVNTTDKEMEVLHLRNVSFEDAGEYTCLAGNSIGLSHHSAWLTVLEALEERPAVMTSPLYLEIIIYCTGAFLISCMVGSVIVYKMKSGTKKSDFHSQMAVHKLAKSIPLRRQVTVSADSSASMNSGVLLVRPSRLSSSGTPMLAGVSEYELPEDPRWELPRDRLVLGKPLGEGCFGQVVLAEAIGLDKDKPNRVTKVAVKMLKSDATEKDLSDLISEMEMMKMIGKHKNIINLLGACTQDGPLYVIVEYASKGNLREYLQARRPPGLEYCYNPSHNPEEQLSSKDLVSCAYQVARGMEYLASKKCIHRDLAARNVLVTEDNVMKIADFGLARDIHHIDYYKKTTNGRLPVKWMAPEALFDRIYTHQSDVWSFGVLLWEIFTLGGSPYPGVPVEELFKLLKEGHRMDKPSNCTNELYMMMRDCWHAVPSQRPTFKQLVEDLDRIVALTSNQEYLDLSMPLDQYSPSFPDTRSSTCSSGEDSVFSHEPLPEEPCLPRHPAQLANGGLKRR
cond: at 10 µM
Mark yes only when residual activity stays strictly below 10%. Values equal to the cut-off are no.

> print(dat)
                               smilesrecord  assignedlabel
1  CCN(CC)CCNC(=O)c1c(C)[nH]c(/C=C2\C(=O)Nc3ccc(Cl)cc32)c1C            yes
2     Cc1cc(C)c(/C=C2\C(=O)Nc3ccccc32)[nH]1             no
3  COc1ccc2c(c1)c(C1=C(c3c[nH]c4ccccc34)C(=O)NC1=O)cn2CCCN(C)C            yes

**Query** Take the compound O=C1NC(=O)C(c2c[nH]c3ccccc23)=C1c1c[nH]c2ccccc12 and say whether its residual activity is less than 10%.
**Result** yes

**Query** Take the compound O=S(=O)(c1cccc2cnccc12)N1CCCNCC1 and say whether its residual activity is less than 10%.
**Result** no

**Query** Take the compound CN(C)S(=O)(=O)c1ccc2c(c1)/C(=C/c1cc3c([nH]1)CCCC3)C(=O)N2 and say whether its residual activity is less than 10%.
**Result** no

**Query** Take the compound O=C1C(Cl)=C(N2C(=O)CCC2=O)C(=O)c2ccccc21 and say whether its residual activity is less than 10%.
**Result** no

----------
systemUnderTest: Tyrosine-protein kinase BTK (Homo sapiens) (UniProt Q06187)
Sequence (Q06187 whole entry): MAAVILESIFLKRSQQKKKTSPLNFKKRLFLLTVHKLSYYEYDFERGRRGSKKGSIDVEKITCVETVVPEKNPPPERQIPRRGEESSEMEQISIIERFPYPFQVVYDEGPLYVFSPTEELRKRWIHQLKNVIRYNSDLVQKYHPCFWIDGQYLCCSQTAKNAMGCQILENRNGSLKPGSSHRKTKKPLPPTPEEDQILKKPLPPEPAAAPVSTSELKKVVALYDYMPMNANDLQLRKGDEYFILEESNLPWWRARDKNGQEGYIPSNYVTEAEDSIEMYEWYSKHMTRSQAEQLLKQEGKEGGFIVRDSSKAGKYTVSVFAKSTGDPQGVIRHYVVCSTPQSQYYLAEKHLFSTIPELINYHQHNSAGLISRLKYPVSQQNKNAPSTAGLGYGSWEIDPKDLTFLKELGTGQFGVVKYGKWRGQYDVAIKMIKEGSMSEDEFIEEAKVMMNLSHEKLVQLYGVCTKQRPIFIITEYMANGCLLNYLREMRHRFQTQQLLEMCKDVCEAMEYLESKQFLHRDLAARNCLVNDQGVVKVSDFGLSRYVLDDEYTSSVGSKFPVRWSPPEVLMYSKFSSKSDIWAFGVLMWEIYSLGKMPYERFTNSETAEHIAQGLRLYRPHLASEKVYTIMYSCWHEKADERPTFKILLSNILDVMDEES
cond: at 10 µM
readoutLabel: residual activity

Solved entries:
> print(dat)
                                   compound  recordedresult
1  O=C1Nc2ccc(Cl)cc2/C1=C/c1cc(Cl)c(O)c(Cl)c1             70%
2                   Nc1n[nH]c2nc3ccccc3nc12             88%
3         O=C(O)/C=C/c1cc(Br)c(Br)c(Br)c1Br             91%
4  CCOc1nc(NC(=O)Cc2cc(OC)ccc2OC)cc(N)c1C#N             78%

**Query** // lookup residual activity for CC(C)(C)c1nc2c3ccc(F)cc3c3c(=O)[nH]ccc3c2[nH]1
**Result** 59%

**Query** // lookup residual activity for COc1cc2nccc(Oc3ccc(NC(=O)Nc4cc(C)on4)c(Cl)c3)c2cc1OC
**Result** 10%

**Query** // lookup residual activity for Fc1ccc(-c2nc3n(c2-c2ccncc2)CCS3)cc1
**Result** 98%
